Record form. Attribute: growth inhibition. Fill in for each entry.
- System: DIPGX7 (H3.3 K27M diffuse intrinsic pontine glioma line)
- testSummary: growth inhibition (% activity, log2 RLU normalised to DMSO / staurosporine); higher = more growth inhibition
- appliedConditions: 33 µM
One number for each entry, in %.

Incoming: If you can, please state the reported growth inhibition value of `[Na+].[Na+].[Na+].[O]=[V]([O-])([O-])[O-]` .
Outgoing: -1.78

Incoming: Now the compound `O=C1CN2Cc3c(ccc(Cl)c3Cl)N=C2N1`
Outgoing: -0.492

Incoming: Also check `CC1=CC(=O)c2ccccc2C1=O`
Outgoing: 3.47

Incoming: Same read-out for `CCN(CC)C(=S)SSC(=S)N(CC)CC` ?
Outgoing: 5.8

Incoming: Would you mind doing `COc1ccc(O)cc1` as well?
Outgoing: 0.553

Incoming: Next record, please: `COc1cc(C(=O)NS(=O)(=O)c2ccccc2C)ccc1Cc1cn(C)c2ccc(NC(=O)OC3CCCC3)cc12`
Outgoing: 0.79

Incoming: And the next one, `C[C@]12CC[C@@H]3c4ccc(O)cc4CC[C@H]3[C@@H]1CC[C@@H]2O` ?
Outgoing: -0.611

Incoming: Now this one: `COC(=O)C1=CO[C@@H](O[C@@H]2O[C@H](CO)[C@@H](O)[C@H](O)[C@H]2O)[C@@H]2C(CO)=CC[C@H]12`
Outgoing: -2.08

Parameter requested: growth inhibition. Apply to each item below.
1. COCCc1ccc(OCC(O)CNC(C)C)cc1 (configuration not stated)
2. C=CCNC(N)=S
3. COc1cc2c(cc1OC)C(=O)C(CC1CCN(Cc3ccccc3)CC1)C2 (configuration not stated)
4. Cc1cccc(N(C)C(=S)Oc2ccc3ccccc3c2)c1
5. CCCCC1C(=O)N(c2ccccc2)N(c2ccccc2)C1=O
6. C[C@H](CCC(=O)O)[C@H]1CC[C@H]2[C@@H]3CC[C@@H]4C[C@H](O)CC[C@]4(C)[C@H]3CC[C@]12C

Outgoing:
1.22
-0.932
3.13
-2.16
-0.44
-2.9

I have 3 compounds here; please give me growth inhibition for each one.
1. CC(=O)O[C@H]1C[C@@H]2CC[C@@H]3[C@H](CC[C@@]4(C)[C@H]3C[C@H]([N+]3(C)CCCCC3)[C@@H]4OC(C)=O)[C@@]2(C)C[C@@H]1N1CCCCC1
2. CCCCCCNC(=O)n1cc(F)c(=O)[nH]c1=O
3. C[C@H](N)[C@H](O)c1cccc(O)c1

Outgoing:
1. 1.01
2. 4.27
3. 1.7

Please give growth inhibition for each item listed below.
1. NC(CO)C(=O)NNCc1ccc(O)c(O)c1O (configuration not stated)
2. CC(C(=O)O)c1cccc(C(=O)c2ccccc2)c1 (configuration not stated)

Outgoing:
-0.561
-0.656

// for each compound below, give its growth inhibition
1. CN/C(=N\CCSCc1nc[nH]c1C)NC#N
2. CN1CCCCC1CCN1c2ccccc2Sc2ccc([S+](C)[O-])cc21 (configuration not stated)
3. CC(C)c1nc(CN(C)C(=O)N[C@H](C(=O)N[C@@H](Cc2ccccc2)C[C@H](O)[C@H](Cc2ccccc2)NC(=O)OCc2cncs2)C(C)C)cs1

Outgoing:
1. 1.01
2. -1.12
3. 2.88
